- Tested on: UO-31
- experimentSummary: NCI tumour cell line growth inhibition, 48 h
Activity calls are given as the source filed them. Rule as the data show it: active = GI50 up to about 1.1 µM and inactive = higher.
testReadout: GI50

These solved cases illustrate the format of a correct answer.
COC(=O)C(C/C=C(\C)c1ccccc1)C(C)=O (stereo unspecified); 33.2 µM (inactive)
COc1ccc(-c2nc(-c3cnccn3)n(COCCO)n2)cc1; > 100 µM (inactive)
NS(=O)(=O)c1ccc(/N=N/c2cc3ccccc3c(C(=O)O)c2O)cc1; > 49.8 µM (inactive)
CC(N)(Cc1c[nH]c2ccccc12)C(=O)O (stereo unspecified); > 100 µM (inactive)
O=C(Nc1ccccc1)N1CC(CN2CCN(c3ccccc3)CC2)OC1=O (stereo unspecified); > 100 µM (inactive)

Continue with the next compound.
Request: Report measured GI50 on UO-31; entry: CSc1c(C#N)c(=O)n(N)c2[nH]nc(C)c12
Result: > 100 µM (inactive)
